target: DDR1 (Homo sapiens); construct: purchased Eurofins DiscoverX KINOMEscan (scanTK); test: KINOMEscan ScanTK; assay type: binding; conditions: @1000nM
Sequence (Q08345 19-913): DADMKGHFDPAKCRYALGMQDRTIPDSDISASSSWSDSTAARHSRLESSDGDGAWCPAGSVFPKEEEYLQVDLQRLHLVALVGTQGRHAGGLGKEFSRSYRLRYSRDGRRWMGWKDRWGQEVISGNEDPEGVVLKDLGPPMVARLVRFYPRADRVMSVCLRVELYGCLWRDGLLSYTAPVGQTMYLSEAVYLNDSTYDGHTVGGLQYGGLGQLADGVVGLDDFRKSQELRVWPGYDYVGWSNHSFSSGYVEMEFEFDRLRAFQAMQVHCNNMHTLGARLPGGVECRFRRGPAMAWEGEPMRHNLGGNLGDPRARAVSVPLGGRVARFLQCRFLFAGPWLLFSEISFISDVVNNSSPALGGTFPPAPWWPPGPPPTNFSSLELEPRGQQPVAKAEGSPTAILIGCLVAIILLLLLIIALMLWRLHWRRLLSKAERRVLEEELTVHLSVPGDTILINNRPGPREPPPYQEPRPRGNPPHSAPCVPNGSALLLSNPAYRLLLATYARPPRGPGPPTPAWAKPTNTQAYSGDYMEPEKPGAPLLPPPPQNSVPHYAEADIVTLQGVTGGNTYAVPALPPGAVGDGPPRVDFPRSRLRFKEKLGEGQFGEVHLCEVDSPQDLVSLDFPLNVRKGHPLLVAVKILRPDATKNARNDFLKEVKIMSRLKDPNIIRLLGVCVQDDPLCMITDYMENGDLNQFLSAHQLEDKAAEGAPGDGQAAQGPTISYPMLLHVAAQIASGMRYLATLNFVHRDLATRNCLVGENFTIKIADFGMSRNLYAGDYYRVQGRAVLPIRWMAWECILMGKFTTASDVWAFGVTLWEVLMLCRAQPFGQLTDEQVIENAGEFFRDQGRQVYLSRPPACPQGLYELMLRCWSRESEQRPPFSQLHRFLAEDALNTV
experimental-endpoint: difference in %Control from compound Ib at 1 µM (%)

# annotated cases, reported difference in %Control from compound Ib at 1 µM shown
[
  {
    "molecule": "CCOC(=O)c1cnc(S(C)(=O)=O)nc1N1CCC[C@@H](n2nc(-c3ccc(Oc4ccccc4)cc3)c3c(N)ncnc32)C1",
    "measurement-target": "DDR1 (Homo sapiens)",
    "value-reported": -14
  },
  {
    "molecule": "CNC(=O)c1cnc(S(C)(=O)=O)nc1N1CCCC(n2nc(-c3ccc(Oc4ccccc4)cc3)c3c(N)ncnc32)C1 (stereo not shown)",
    "measurement-target": "DDR1 (Homo sapiens)",
    "value-reported": -14
  }
]

[1] Cc1cnc(S(C)(=O)=O)nc1N1CCCC(n2nc(-c3ccc(Oc4ccccc4)cc3)c3c(N)ncnc32)C1 (stereo not shown)
[2] COC(=O)c1cnc(S(C)(=O)=O)nc1N1CCCC(n2nc(-c3ccc(Oc4ccccc4)cc3)c3c(N)ncnc32)C1 (stereo not shown)
I'm curious, which of these has a smaller difference in %Control from compound Ib at 1 µM number: 1 or 2 ? Please indicate the selected item by its label.
2
(2: -18%, 1: 5%)
